Reference for the values: the supplement of paper PMC12338614

B1: library; numbered along this chain (parent)
chain: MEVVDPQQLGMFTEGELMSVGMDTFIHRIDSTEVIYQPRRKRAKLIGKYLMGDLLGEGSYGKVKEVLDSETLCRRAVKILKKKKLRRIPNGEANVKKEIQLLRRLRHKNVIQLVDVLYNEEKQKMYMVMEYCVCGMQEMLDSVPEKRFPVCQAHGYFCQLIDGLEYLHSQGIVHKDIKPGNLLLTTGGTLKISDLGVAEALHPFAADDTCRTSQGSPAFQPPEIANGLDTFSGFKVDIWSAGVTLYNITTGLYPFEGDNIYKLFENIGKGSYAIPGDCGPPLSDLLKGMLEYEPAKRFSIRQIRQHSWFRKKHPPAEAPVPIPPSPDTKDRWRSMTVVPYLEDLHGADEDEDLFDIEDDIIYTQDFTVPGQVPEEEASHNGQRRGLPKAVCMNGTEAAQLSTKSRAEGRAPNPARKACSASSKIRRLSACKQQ

# Variants of: B1
# assay overview: STK11 functional score (HeLa growth suppression), rescaled enrichment; synonymous median = 1, nonsense median = 0 (normalised score)
# experimental conditions: with HeLa; variant type: missense
quantity name: STK11 functional score
Answers are plain numbers.

Known results for variants:
R384I    1.06
K44F    1.34
K262D    1.38
K83Q    0.343
L9F    1.06

Please give STK11 functional score for each item listed below.
1. K41L
2. L167G
3. P280N
4. G180P
5. Y156Q

1.27
0.121
1.63
0.814
0.148

Please give STK11 functional score for each item listed below.
1. P294N
2. K124A
3. F309G
4. Y131S
5. T24G
6. A295W

1: 0.433; 2: 1.13; 3: -0.12; 4: 1.18; 5: 1.43; 6: 1.36

Please give STK11 functional score for each item listed below.
1. A205D
2. D258M
3. T402W
4. E357P
5. A397T

1.33
0.663
1.44
1.58
1.51

Please give STK11 functional score for each item listed below.
1. I88S
2. G187A
3. E349R
4. D277I

1. 1.16
2. 1.09
3. 1.37
4. 1.45

Please give STK11 functional score for each item listed below.
1. P89Y
2. V173S
3. P144K
4. V63W

0.644
1.23
1.63
0.213

Please give STK11 functional score for each item listed below.
1. G180E
2. I303Y
3. V236S

1. 1.09
2. -0.337
3. 1.4

Please give STK11 functional score for each item listed below.
1. F309R
2. R333I
3. S193H
4. R86V
5. V390Y
6. I46D
7. M51L

0.0957
1.49
0.192
1.4
1.41
0.149
0.806

Please give STK11 functional score for each item listed below.
1. Q159P
2. R211F

0.757
1.61
